# IC50 of inhibition of cleavage of chemical substrate S2302 by FXIIa (OD405) per entry
# target_desc: huFXII-his (human) (UniProt P00748)
# Sequence (P00748 20-615, form in doubt): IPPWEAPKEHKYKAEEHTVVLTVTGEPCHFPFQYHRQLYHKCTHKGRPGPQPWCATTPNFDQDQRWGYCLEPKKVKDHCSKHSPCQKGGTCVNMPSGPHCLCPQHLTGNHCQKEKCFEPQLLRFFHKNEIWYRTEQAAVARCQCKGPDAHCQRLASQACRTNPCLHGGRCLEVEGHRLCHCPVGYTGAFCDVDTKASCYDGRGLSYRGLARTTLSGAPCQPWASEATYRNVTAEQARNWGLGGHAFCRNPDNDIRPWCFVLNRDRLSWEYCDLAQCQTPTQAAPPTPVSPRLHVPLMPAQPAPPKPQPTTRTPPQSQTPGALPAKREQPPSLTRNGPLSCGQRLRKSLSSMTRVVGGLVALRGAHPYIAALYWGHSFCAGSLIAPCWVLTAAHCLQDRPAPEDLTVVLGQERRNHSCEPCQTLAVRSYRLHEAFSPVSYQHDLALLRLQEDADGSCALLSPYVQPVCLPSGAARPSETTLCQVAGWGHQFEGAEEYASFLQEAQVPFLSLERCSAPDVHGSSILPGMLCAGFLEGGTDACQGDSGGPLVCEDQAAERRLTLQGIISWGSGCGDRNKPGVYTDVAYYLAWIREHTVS
# assay_notes: cell-based or functional assay
Number only, in µg/mL; omit the unit.

Worked examples, 4 binders total:
FX-Y17-Y5 (antibody, V domains shown) VH: EVQLLESGGGLVQPGGSLRLSCAGSGFSFGSQTMSWVRQAPGKGLEWVSSISVISGRYYYADSVKGRFTISRDNSKNTLYLQMNSLRAEDTAVYYCTKSHAFDVWGQGTMVTVSS VL: EIVLTQSPATLSVSPGERATLSCRASQSVYSALAWYQQKPGQAPRLLIYGASTRATGIPARFSGSGSGTEFTLTISSLQSEDFAVYYCQQYHKWPLSFGGGTKVEIK ... 0.0254
FX-Y17-Y15 (antibody, V domains shown) VH: EVQLLESGGGLVQPGGSLRLSCAGSGFSFGSQTMSWVRQAPGKGLEWVSSISVISGRPYYADSVKGRFTISRDNSKNTLYLQMNSLRAEDTAVYYCTKSHAFDVWGQGTMVTVSS VL: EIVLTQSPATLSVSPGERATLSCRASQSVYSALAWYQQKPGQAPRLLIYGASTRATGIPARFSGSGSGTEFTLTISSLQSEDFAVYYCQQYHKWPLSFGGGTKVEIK ... 0.0202
FX-Y17-Y45 (antibody, V domains shown) VH: EVQLLESGGGLVQPGGSLRLSCAGSGFSFGSQTMSWVRQAPGKGLEWVSSISHISGRTYYADSVKGRFTISRDNSKNTLYLQMNSLRAEDTAVYYCAKSHAFDVWGQGTMVTVSS VL: EIVLTQSPATLSVSPGERATLSCRASQSVYSALAWYQQKPGQAPRLLIYGASTRATGIPARFSGSGSGTEFTLTISSLQSEDFAVYYCQQNNRWPLSFGGGTKVEIK ... 0.0221
FX-Y17-Y18 (antibody, V domains shown) VH: EVQLLESGGGLVQPGGSLRLSCAGSGFSFGSQTMSWVRQAPGKGLEWVSSISVISGRSYYADSVKGRFTISRDNSKNTLYLQMNSLRAEDTAVYYCTKHHAFDVWGQGTMVTVSS VL: EIVLTQSPATLSVSPGERATLSCRASQSVWSNLAWYQQKPGQAPRLLIYGASTRATGIPARFSGSGSGTEFTLTISSLQSEDFAVYYCQQYHKWPLSFGGGTKVEIK ... 0.0242

The binder identified as FX-Y17-Y13 (antibody, V domains shown) VH: EVQLLESGGGLVQPGGSLRLSCAGSGFSFGSQTMSWVRQAPGKGLEWVSSISVISRRTYYADSVKGRFTISRDNSKNTLYLQMNSLRAEDTAVYYCTRSHAFDVWGQGTMVTVSS VL: EIVLTQSPATLSVSPGERATLSCRASQSVYSNLAWYQQKPGQAPRLLIYGASTRATGIPARFSGSGSGTEFTLTISSLQSEDFAVYYCQQYHKWPLSFGGGTKVEIK registered its IC50 of inhibition of cleavage of chemical substrate S2302 by FXIIa (OD405) at 0.0259
